Entry source: patent US9371320B2

Biological target: Tyk2 (Homo sapiens)
Construct: purchased Invitrogen
Sequence (P29597 whole entry): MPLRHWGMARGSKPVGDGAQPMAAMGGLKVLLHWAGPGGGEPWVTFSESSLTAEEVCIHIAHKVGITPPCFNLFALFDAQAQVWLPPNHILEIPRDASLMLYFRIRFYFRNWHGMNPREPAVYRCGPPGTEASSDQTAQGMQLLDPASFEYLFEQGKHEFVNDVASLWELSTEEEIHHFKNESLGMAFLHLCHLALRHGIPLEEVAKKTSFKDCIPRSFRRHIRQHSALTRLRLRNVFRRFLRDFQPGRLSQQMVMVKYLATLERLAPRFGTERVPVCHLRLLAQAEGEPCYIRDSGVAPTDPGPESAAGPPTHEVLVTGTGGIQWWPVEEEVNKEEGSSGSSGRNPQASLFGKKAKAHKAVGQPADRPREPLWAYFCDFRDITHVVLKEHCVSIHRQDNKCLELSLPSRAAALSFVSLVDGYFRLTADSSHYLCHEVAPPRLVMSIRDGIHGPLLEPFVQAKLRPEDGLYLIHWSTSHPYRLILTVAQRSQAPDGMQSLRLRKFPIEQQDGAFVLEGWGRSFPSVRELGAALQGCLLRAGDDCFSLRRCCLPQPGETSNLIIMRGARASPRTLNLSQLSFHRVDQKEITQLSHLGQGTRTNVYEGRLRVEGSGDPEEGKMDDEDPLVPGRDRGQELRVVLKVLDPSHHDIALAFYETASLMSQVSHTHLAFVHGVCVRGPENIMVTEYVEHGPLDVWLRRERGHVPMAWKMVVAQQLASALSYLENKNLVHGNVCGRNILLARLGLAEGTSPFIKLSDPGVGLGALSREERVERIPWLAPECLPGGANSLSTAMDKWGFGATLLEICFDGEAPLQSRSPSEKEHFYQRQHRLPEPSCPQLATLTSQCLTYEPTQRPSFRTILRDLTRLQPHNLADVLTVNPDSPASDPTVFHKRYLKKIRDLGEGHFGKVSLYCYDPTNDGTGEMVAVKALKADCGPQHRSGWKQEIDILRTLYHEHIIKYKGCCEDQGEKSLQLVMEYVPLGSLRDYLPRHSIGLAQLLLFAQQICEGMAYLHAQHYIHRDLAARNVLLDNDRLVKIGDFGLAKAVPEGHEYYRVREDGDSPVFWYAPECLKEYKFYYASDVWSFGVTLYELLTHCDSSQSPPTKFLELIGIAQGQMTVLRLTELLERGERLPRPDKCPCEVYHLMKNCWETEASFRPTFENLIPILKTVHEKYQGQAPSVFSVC
Assay: Tyk2 enzyme inhibition test (LANCE method)
Format: biochemical
Details: test compound 1 μM; read-out: Inhibitory rate (%) Tyk2 1 μM
ATTRIBUTE_MEASURED: inhibition at 1 µM (%)

[in] Requested read-out: inhibition at 1 µM. Entry: N#Cc1cccc(F)c1-n1nc(-c2cn[nH]c2)c2c(=O)[nH]ccc21 [Example 315]
[out] 98

[in] Requested read-out: inhibition at 1 µM. Entry: O=C1CCC(=O)N1Cc1ccc(-c2nn(-c3c(F)cccc3F)c3c(Cl)c[nH]c(=O)c23)cc1 [Example 219]
[out] 98

[in] Requested read-out: inhibition at 1 µM. Entry: CNC(=O)c1ccc(-c2nn(-c3c(F)cccc3F)c3c(Cl)c[nH]c(=O)c23)cc1F [Example 216]
[out] 97

[in] Requested read-out: inhibition at 1 µM. Entry: N#CCc1cc(-c2cn(C3CCCC3)c3c(C#N)c[nH]c(=O)c23)cs1 [Example 93]
[out] 99

[in] Requested read-out: inhibition at 1 µM. Entry: N#Cc1c[nH]c(=O)c2c(-c3csc(C(N)=O)c3)nn(C3CCCC3)c12 [Example 165]
[out] 98

[in] Requested read-out: inhibition at 1 µM. Entry: O=c1[nH]ccc2c1c(-c1ccc(N3CCOCC3)cc1)nn2-c1c(F)cccc1F [Example 179]
[out] 100

[in] Requested read-out: inhibition at 1 µM. Entry: NC(=O)Cc1ccc(-c2nn(-c3c(F)cccc3F)c3c(Cl)c[nH]c(=O)c23)cc1 [Example 124]
[out] 98

[in] Requested read-out: inhibition at 1 µM. Entry: NS(=O)(=O)c1cccc(Nc2nn(C3CCCC3)c3c(Br)c[nH]c(=O)c23)c1 [Example 285]
[out] 82

[in] Requested read-out: inhibition at 1 µM. Entry: O=c1[nH]ccc2c1c(-c1ccc(N3CCOCC3)cc1)nn2C1CCCCC1(F)F (centres unmarked) [Example 317]
[out] 99

[in] Requested read-out: inhibition at 1 µM. Entry: O=c1[nH]cc(Cl)c2c1c(-c1csc(CN3CCOCC3)c1)nn2-c1c(F)cccc1F [Example 203]
[out] 100

[in] Requested read-out: inhibition at 1 µM. Entry: NC(=O)c1cccc(-c2nn(C3CCCC3)c3cc[nH]c(=O)c23)c1 [Example 143]
[out] 92

[in] Requested read-out: inhibition at 1 µM. Entry: CC(=O)N1CCC(c2ccc(-c3nn(-c4c(F)cccc4F)c4cc[nH]c(=O)c34)cc2)C(F)(F)C1 (centres unmarked) [Example 316]
[out] 99

[in] Requested read-out: inhibition at 1 µM. Entry: NC(=O)c1cc(-c2nn(-c3ccccn3)c3cc[nH]c(=O)c23)cs1 [Example 247]
[out] 88

[in] Requested read-out: inhibition at 1 µM. Entry: O=c1[nH]cc(Cl)c2c1c(-c1ccc(N3CCSCC3)cc1)nn2-c1c(F)cccc1F [Example 236]
[out] 99

[in] Requested read-out: inhibition at 1 µM. Entry: N#Cc1c[nH]c(=O)c2c(-c3ccccn3)cn(C3CCCC3)c12 [Example 132]
[out] 74

[in] Requested read-out: inhibition at 1 µM. Entry: N#CCc1ccc(-c2nn(-c3c(F)cccc3F)c3c(Cl)c[nH]c(=O)c23)cc1 [Example 116]
[out] 99

[in] Requested read-out: inhibition at 1 µM. Entry: CNC(=O)COc1ccc(-c2nn(-c3c(F)cccc3F)c3c(Cl)c[nH]c(=O)c23)cc1 [Example 221]
[out] 99

[in] Requested read-out: inhibition at 1 µM. Entry: N#Cc1c[nH]c(=O)c2c(-c3ccc(C(N)=O)cc3)cn(C3CCCC3)c12 [Example 81]
[out] 97

[in] Requested read-out: inhibition at 1 µM. Entry: COc1ccc(Cn2nc(-c3ccc(S(N)(=O)=O)cc3)c3c(=O)[nH]ccc32)cc1 [Example 94]
[out] 78

[in] Requested read-out: inhibition at 1 µM. Entry: CNC(=O)c1ccc(-c2nn(-c3c(F)cccc3F)c3c(Cl)c[nH]c(=O)c23)cc1 [Example 194]
[out] 100

[in] Requested read-out: inhibition at 1 µM. Entry: O=c1[nH]cc(Cl)c2c1c(-c1ccc(N3CCOCC3)cc1)nn2-c1c(F)cccc1F [Example 161]
[out] 99

[in] Requested read-out: inhibition at 1 µM. Entry: Cc1ccccc1-c1nn(-c2csc(C(=O)O)c2)c2c(=O)[nH]cc(Br)c12 [Example 79]
[out] 93

[in] Requested read-out: inhibition at 1 µM. Entry: CC(=O)c1c[nH]c(=O)c2c(-c3csc(C(N)=O)c3)cn(C3CCCC3)c12 [Example 60]
[out] 89

[in] Requested read-out: inhibition at 1 µM. Entry: NC(=O)c1cc(-c2nn(C3CCC4(CC3)OCCO4)c3cc[nH]c(=O)c23)cs1 [Example 148]
[out] 98

[in] Requested read-out: inhibition at 1 µM. Entry: N#Cc1c[nH]c(=O)c2c(-c3cn[nH]c3)cn(C3CCCC3)c12 [Example 111]
[out] 99

[in] Requested read-out: inhibition at 1 µM. Entry: O=c1[nH]ccc2c1c(-c1ccncc1)nn2C1CCCC1 [Example 44]
[out] 91

[in] Requested read-out: inhibition at 1 µM. Entry: NS(=O)(=O)c1cccc(-c2nn(C3CCCC3)c3cc[nH]c(=O)c23)c1 [Example 159]
[out] 87

[in] Requested read-out: inhibition at 1 µM. Entry: Cn1cc(-c2nn(-c3c(F)cccc3F)c3c(Cl)c[nH]c(=O)c23)cn1 [Example 189]
[out] 100

[in] Requested read-out: inhibition at 1 µM. Entry: CC(C)(C)n1nc(Nc2ccccc2)c2c(=O)[nH]ccc21 [Example 250]
[out] 69

[in] Requested read-out: inhibition at 1 µM. Entry: NC(=O)c1cccc(-c2nn(-c3c(F)cccc3F)c3cc[nH]c(=O)c23)c1 [Example 255]
[out] 98

[in] Requested read-out: inhibition at 1 µM. Entry: NC(=O)c1cccc(-c2nn(-c3c(F)cccc3F)c3c(Cl)c[nH]c(=O)c23)c1 [Example 254]
[out] 98

[in] Requested read-out: inhibition at 1 µM. Entry: Cn1ccc(-c2cn(C3CCCC3)c3c(C#N)c[nH]c(=O)c23)n1 [Example 136]
[out] 93

----------
Molecular target: JAK1 (Homo sapiens)
Construct: purchased Invitrogen
Sequence (P23458 whole entry): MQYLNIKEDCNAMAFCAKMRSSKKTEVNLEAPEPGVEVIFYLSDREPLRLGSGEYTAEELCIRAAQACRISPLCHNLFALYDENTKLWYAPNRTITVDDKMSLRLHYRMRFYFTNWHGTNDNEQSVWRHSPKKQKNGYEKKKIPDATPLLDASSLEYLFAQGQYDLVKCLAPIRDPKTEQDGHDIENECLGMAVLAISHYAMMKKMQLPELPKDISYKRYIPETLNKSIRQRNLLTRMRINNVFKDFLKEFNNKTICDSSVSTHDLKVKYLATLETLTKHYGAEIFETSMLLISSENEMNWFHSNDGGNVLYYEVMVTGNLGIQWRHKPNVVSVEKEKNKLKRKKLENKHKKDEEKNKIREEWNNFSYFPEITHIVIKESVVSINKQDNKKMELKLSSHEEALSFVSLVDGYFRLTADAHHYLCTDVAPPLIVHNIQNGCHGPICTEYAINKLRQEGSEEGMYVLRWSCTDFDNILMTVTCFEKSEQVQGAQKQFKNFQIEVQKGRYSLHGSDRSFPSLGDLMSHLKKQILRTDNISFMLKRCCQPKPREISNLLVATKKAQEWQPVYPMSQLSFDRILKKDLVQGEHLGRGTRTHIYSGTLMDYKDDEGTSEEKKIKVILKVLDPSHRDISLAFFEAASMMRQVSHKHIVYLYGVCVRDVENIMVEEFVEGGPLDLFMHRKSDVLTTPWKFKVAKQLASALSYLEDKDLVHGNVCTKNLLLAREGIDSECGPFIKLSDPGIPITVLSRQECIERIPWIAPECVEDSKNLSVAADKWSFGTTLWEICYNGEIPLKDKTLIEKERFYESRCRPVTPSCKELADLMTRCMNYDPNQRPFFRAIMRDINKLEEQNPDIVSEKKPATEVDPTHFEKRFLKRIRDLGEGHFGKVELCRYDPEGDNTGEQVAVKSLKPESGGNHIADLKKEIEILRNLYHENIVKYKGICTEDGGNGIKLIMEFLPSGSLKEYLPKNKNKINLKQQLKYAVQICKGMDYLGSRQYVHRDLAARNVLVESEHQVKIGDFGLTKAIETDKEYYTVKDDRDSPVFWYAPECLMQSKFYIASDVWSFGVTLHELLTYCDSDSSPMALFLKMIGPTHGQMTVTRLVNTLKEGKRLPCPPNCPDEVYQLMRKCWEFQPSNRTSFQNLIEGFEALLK
Test: JAK1 enzyme inhibition test (LANCE method)
Assay type: biochemical
Settings: test compound 1 μM
ATTRIBUTE_MEASURED: Inhibitory rate (%) JAK1 1 μM

[in] Requested read-out: Inhibitory rate (%) JAK1 1 μM. Entry: NS(=O)(=O)c1ccc(-c2nn(C3CCOC3)c3cc[nH]c(=O)c23)cc1 (centres unmarked) [Example 83]
[out] 97

[in] Requested read-out: Inhibitory rate (%) JAK1 1 μM. Entry: NS(=O)(=O)c1ccc(-c2nn(C3CCOC3)c3cc[nH]c(=O)c23)cc1 (centres unmarked) [Example 84]
[out] 84

[in] Requested read-out: Inhibitory rate (%) JAK1 1 μM. Entry: NS(=O)(=O)c1ccc(-c2nn(C3CCCOC3)c3cc[nH]c(=O)c23)cc1 (centres unmarked) [Example 88]
[out] 96

[in] Requested read-out: Inhibitory rate (%) JAK1 1 μM. Entry: NS(=O)(=O)c1ccc(-c2nn(C3CCC(O)CC3)c3cc[nH]c(=O)c23)cc1 (centres unmarked)
[out] 99

[in] Requested read-out: Inhibitory rate (%) JAK1 1 μM. Entry: NS(=O)(=O)c1ccc(-c2nn(C3CCCOC3)c3cc[nH]c(=O)c23)cc1 (centres unmarked) [Example 28]
[out] 99

----------
Target: JAK1 (Homo sapiens)
Construct: purchased Invitrogen
Experiment: JAK1 enzyme inhibition test (LANCE method)
Assay type: biochemical
Settings: test compound 1 μM; read-out: Inhibitory rate (%) JAK1 1 μM
ATTRIBUTE_MEASURED: inhibition at 1 µM (%)

// known answers, use as guide
[in] Test system JAK1 (Homo sapiens); read-out inhibition at 1 µM; what value for Cc1ccccc1-c1nn(-c2csc(C(=O)O)c2)c2c(=O)[nH]cc(Br)c12 ?
[out] 44

[in] Test system JAK1 (Homo sapiens); read-out inhibition at 1 µM; what value for COC(=O)c1ccc(-c2nn(-c3c(F)cccc3F)c3cc[nH]c(=O)c23)cc1 ?
[out] 77

[in] Test system JAK1 (Homo sapiens); read-out inhibition at 1 µM; what value for O=c1[nH]ccc2c1c(-c1ccc(N3CCOCC3)cc1)nn2-c1c(F)cccc1F ?
[out] 94

[in] Test system JAK1 (Homo sapiens); read-out inhibition at 1 µM; what value for NS(=O)(=O)c1ccc(-c2nn(C3CCOC3)c3cc[nH]c(=O)c23)cc1 (centres unmarked) ?
[out] 95

[in] Test system JAK1 (Homo sapiens); read-out inhibition at 1 µM; what value for NC(=O)c1ccc(-c2nn(C3CCCC3)c3cc[nH]c(=O)c23)cc1 ?
[out] 96

I. N#CCc1ccc(-c2cn(C3CCOCC3)c3cc[nH]c(=O)c23)cc1
II. CC(C)(C)n1nc(-c2ccc(N3CCOCC3)cc2)c2c(=O)[nH]ccc21
III. NS(=O)(=O)c1ccc(-c2cn(CC(O)CO)c3cc[nH]c(=O)c23)cc1 (centres unmarked)
[in] Write the entries in order, lowest recorded inhibition at 1 µM first. Record the ranking as a list of labels in the requested order.
[out] III, II, I
(III: 19%, II: 52%, I: 77%)
